target: KRAS G12D (Homo sapiens, UniProt P01116, G12D); assay: SOS-catalyzed nucleotide exchange assay, KRAS G12D (Procedure A); type: biochemical; conditions: guanine nucleotide exchange (GNE)
Sequence (P01116 with tags, fused parts or gaps isoform P01116-2 G12D): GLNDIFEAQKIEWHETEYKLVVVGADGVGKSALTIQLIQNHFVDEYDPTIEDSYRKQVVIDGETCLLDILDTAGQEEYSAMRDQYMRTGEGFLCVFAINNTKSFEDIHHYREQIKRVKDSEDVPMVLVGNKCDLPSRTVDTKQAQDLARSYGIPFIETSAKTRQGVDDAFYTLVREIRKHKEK
measured-quantity: IC50 (nM)

Example compounds with recorded IC50:
[[record]]
compound = "Cc1cc2[nH]ncc2c(-c2nccc3c2sc2nc(OCC45COC(C4)C5)nc(N4C[C@H]5CC[C@@H](C4)N5)c23)c1C(F)(F)F [Ex-43]"
measured_quantity = "IC50"
uom = "nM"
observed = 2180

[[record]]
compound = "C#Cc1csc2cc3[nH]ncc3c(-c3nccc4c3sc3nc(OC[C@@]56CCCN5C/C(=C\\F)C6)nc(N5C[C@H]6CC[C@@H](C5)N6)c34)c12 [Ex-85]"
measured_quantity = "IC50"
uom = "nM"
observed = 2.06


[1] Cc1cc2[nH]ncc2c(-c2nccc3c2sc2nc(OCC4(C)CNC(=O)C4)nc(N4C[C@H]5CC[C@@H](C4)N5)c23)c1C(F)(F)F (stereo partly drawn) [Ex-37]
[2] C#Cc1c(F)ccc2cc(O)cc(-c3nccc4c5c(N6C[C@H]7CC[C@@H](C6)N7)nc(OC[C@@]67CCCN6C[C@H](F)C7)nc5n(C)c34)c12 [Ex-8]
[3] Cc1cc2[nH]ncc2c(-c2nccc3c2sc2nc(OCCN4CCOC4=O)nc(N4C[C@H]5CC[C@@H](C4)N5)c23)c1C(F)(F)F [Ex-40]
[4] Cn1c2nc(OC[C@@]34CCCN3C[C@H](F)C4)nc(N3C[C@H]4CC[C@@H](C3)N4)c2c2ccnc(-c3ccc(F)c4sc(N)c(C#N)c34)c21 [Ex-5]
Enquiry: Would you mind ranking these compounds by ascending IC50? Response field: labels, in requested order.
Return: 2, 4, 1, 3
(2: 1.81 nM, 4: 18 nM, 1: 1280 nM, 3: 5880 nM)

====

target: PANC08.13 cells (Homo sapiens, UniProt P01116, G12D); construct: p-ERK/total ERK AlphaSureFire read-out; assay: Cellular phospho-ERK assay, PANC08.13 cells (KRAS G12D); conditions: 2 hours, read-out: PANCO 813 pERK IC50
Sequence (P01116 1-188 isoform P01116-2 G12D): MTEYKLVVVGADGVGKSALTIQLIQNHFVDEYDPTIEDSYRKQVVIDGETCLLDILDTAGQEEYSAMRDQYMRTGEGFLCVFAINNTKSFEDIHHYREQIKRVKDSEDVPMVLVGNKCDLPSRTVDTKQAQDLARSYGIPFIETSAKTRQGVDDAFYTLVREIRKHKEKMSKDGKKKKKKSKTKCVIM
pIC50: −log10 of the molar value.
measured-quantity: pIC50

Worked examples follow.
[[record]]
compound = "Nc1nc2c(-c3nccc4c3sc3nc(OC[C@@]56CCCN5C[C@H](F)C6)nc(N5C[C@H]6CC[C@@H](C5)N6)c34)c(F)cc(F)c2o1 [Ex-15]"
observed = "< 5.00"

[[record]]
compound = "N#Cc1c(N)sc2c(F)ccc(-c3nccc4c3sc3nc(OC[C@]5(CO)CC5(F)F)nc(N5CC6CCC(C5)N6)c34)c12 [Ex-60]"
observed = 5.00


With those in mind, consider the next compound.
The measured pIC50 associated with Cc1cc2[nH]ncc2c(-c2nccc3c2sc2nc(OCC4(CO)CCC4)nc(N4C[C@H]5CC[C@@H](C4)N5)c23)c1C(F)F [Ex-64] reads < 5.00

====

target: AsPC-1 cells (Homo sapiens, UniProt P01116, G12D); construct: p-ERK/total ERK AlphaSureFire read-out; test: Cellular phospho-ERK assay, AsPC-1 cells (KRAS G12D); conditions: 2 hours, read-out: AsPC1 pERK IC50
Sequence (P01116 1-188 isoform P01116-2 G12D): as the sequence (P01116 1-188 isoform P01116-2 G12D) above
pIC50: −log10 of the molar value.
measured-quantity: pIC50

[[record]]
molecule = "C#Cc1c(F)ccc2cc(O)cc(-c3nccc4c5c(N6C[C@H]7CC[C@@H](C6)N7)nc(OC[C@@]67CCCN6C[C@H](F)C7)nc5n(C)c34)c12 [Ex-8]"
measured_quantity = "pIC50"
observed = 6.86


[A] C#Cc1cccc2cccc(-c3nccc4c3sc3nc(OC[C@@]56CCCN5C[C@H](F)C6)nc(N5C[C@H]6CC[C@@H](C5)N6)c34)c12 [Ex-10]
[B] C#Cc1c(F)ccc2cc3[nH]ncc3c(-c3nccc4c3sc3nc(OC[C@]5(CN6CC7(CCOC7)C6)CC5(F)F)nc(N5C[C@H]6CC[C@@H](C5)N6)c34)c12 [Ex-104]
Enquiry: Please state the entry with greater pIC50 among A and B . Please indicate the selected item by its label.
Return: B
